Kindly supply the reported CC50 at 96 h values for the records listed here.
# TEST DETAILS: Cytotoxicity against human MT4 cells assessed as reduction in cell viability incubated for 4 days MTT method
# Format: cell-based

q: Returns the measured CC50 at 96 h for the input compound. Input: Cc1ccccc1NC(=O)CSc1nccc(Oc2c(C)cc(C#N)cc2C)n1
a: > 309 µM

q: Give the measured CC50 at 96 h of Cc1ccc(NC(=O)CSc2nccc(Oc3c(C)cc(C#N)cc3C)n2)cc1 .
a: > 309 µM

q: Quick one: CC50 at 96 h of Cc1cc(C#N)cc(C)c1Oc1ccnc(SCC(=O)Nc2ccc(O)cc2)n1 ?
a: 71 µM

q: # query: CC50 at 96 h of entry Cc1cc(C#N)cc(C)c1Oc1ccnc(SCC(=O)Nc2cccc([N+](=O)[O-])c2)n1
a: > 287 µM

q: Would you kindly share the measured CC50 at 96 h for Cc1cc(C#N)cc(C)c1Oc1ccnc(SCC(=O)Nc2ccc(S(N)(=O)=O)cc2)n1 ?
a: > 266 µM

Recorded values, source ChEMBL document CHEMBL3593166.
